// data source = ChEMBL document CHEMBL5214992

assay: Volume of distribution at steady state in C57BL6/N mouse; assay type: ADME; conditions: in vivo, read-out: Vdss
quantity.kind: Vd (L/kg)

> print(dat)
                  smiles.input  numeric.value
1  C[C@@H]1Cc2cc(C(N)=O)cnc2N1          0.877

====

biological target: CYP450 (Homo sapiens, UniProt P04798+P05177+P05181+P08684+P10632+P10635+P11509+P11712+P13584+P20813+P20815+P20853+P24462+P24903+P33260+P33261+P51589+P78329+P98187+Q02928+Q08477+Q16678+Q16696+Q5TCH4+Q6VVX0+Q7Z449+Q8TAV3+Q96SQ9+Q9HB55); assay: Inhibition of CYP450 (unknown origin); type: ADME, protein assay
pIC50: −log10 of the molar value.
quantity.kind: pIC50

> print(dat)
                  smiles.input  quantity.kind  result
1  C[C@@H]1Cc2cc(C(N)=O)cnc2N1          pIC50  < 4.00

====

pIC50: −log10 of the molar value.
Below are pIC50 values measured for Nicotinamide N-methyltransferase (Homo sapiens, UniProt P40261).
quantity.kind: pIC50

> print(dat)
                         smiles.input                            assayed.target  quantity.kind  qualifier.sign  numeric.value
 1             NC(=O)c1cnc2c(c1)OCCN2  Nicotinamide N-methyltransferase (Homo sapiens, UniProt P40261)          pIC50               <           5.00
 2              NC(=O)c1cnc2c(c1)CCN2  Nicotinamide N-methyltransferase (Homo sapiens, UniProt P40261)          pIC50               =           6.76
 3        C[C@@H]1Cc2cc(C(N)=O)cnc2N1  Nicotinamide N-methyltransferase (Homo sapiens, UniProt P40261)          pIC50               =           7.38
 4  C[C@@H]1Cc2cc(C(N)=O)c[n+](C)c2N1  Nicotinamide N-methyltransferase (Homo sapiens, UniProt P40261)          pIC50               =           5.20
 5             NC(=O)c1cnc2c(c1)CCCN2  Nicotinamide N-methyltransferase (Homo sapiens, UniProt P40261)          pIC50               =           6.13
 6             CNc1cc(OC)c(C(N)=O)cn1  Nicotinamide N-methyltransferase (Homo sapiens, UniProt P40261)          pIC50               <           5.00
 7                 CNc1ncc(C(N)=O)cn1  Nicotinamide N-methyltransferase (Homo sapiens, UniProt P40261)          pIC50               <           5.00
 8             CCOc1cc(C)c(C(N)=O)cn1  Nicotinamide N-methyltransferase (Homo sapiens, UniProt P40261)          pIC50               <           5.00
 9             NC(=O)c1cnc2[nH]ncc2c1  Nicotinamide N-methyltransferase (Homo sapiens, UniProt P40261)          pIC50               <           5.00
10         C[C@H]1Cc2cc(C(N)=O)cnc2N1  Nicotinamide N-methyltransferase (Homo sapiens, UniProt P40261)          pIC50               <           5.00
11                  CNc1ncc(C(N)=O)s1  Nicotinamide N-methyltransferase (Homo sapiens, UniProt P40261)          pIC50               <           5.00
12            NC(=O)c1cnc2c(c1Cl)CCN2  Nicotinamide N-methyltransferase (Homo sapiens, UniProt P40261)          pIC50               =           7.04
13                   CNc1ccncc1C(N)=O  Nicotinamide N-methyltransferase (Homo sapiens, UniProt P40261)          pIC50               <           5.00
14    C[C@@H]1Cc2c(ncc(C(N)=O)c2Cl)N1  Nicotinamide N-methyltransferase (Homo sapiens, UniProt P40261)          pIC50               =           7.32
15              CNc1cc(C)c(C(N)=O)cn1  Nicotinamide N-methyltransferase (Homo sapiens, UniProt P40261)          pIC50               =           6.55

====

assay: AUClast in C57BL6/N mouse at 50 mg/kg, po measured upto 24 hrs by LC-MS/MS analysis; format: ADME, organism-based; parameters: time < 24 hrs, dose 50 mg/kg, route po; settings: C57BL6/N, in vivo
quantity.kind: AUC(0-t) at 24 h (ng·h/mL)

> print(dat)
                     smiles.input     quantity.kind  units.of.measure  numeric.value
1         NC(=O)c1cnc2c(c1Cl)CCN2  AUC(0-t) at 24 h           ng·h/mL           4330
2  Cc1c(C(N)=O)cnc2c1C[C@@H](C)N2  AUC(0-t) at 24 h           ng·h/mL          12100
3           CNc1cc(C)c(C(N)=O)cn1  AUC(0-t) at 24 h           ng·h/mL          30700
4          Cc1c(C(N)=O)cnc2c1CCN2  AUC(0-t) at 24 h           ng·h/mL           9220
5           NC(=O)c1cnc2c(c1)CCN2  AUC(0-t) at 24 h           ng·h/mL          29000

====

biological target: Nicotinamide N-methyltransferase (Homo sapiens); assay: Inhibition of human NNMT in human K562 cells measured after 24 hrs by quantitative mass spectrometry; type: cell-based
Sequence (P40261 whole entry): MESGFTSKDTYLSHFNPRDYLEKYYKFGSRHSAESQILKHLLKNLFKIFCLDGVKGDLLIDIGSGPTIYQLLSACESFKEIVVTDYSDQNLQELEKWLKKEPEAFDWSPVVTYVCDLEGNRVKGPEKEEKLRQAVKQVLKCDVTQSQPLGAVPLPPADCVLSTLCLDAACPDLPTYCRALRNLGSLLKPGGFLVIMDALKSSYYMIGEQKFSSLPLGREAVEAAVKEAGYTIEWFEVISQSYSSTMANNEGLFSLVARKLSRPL
pIC50: −log10 of the molar value.
quantity.kind: pIC50

> print(dat)
                       smiles.input  quantity.kind  numeric.value
1           NC(=O)c1cnc2c(c1Cl)CCN2          pIC50           7.10
2             CNc1cc(C)c(C(N)=O)cn1          pIC50           7.60
3       C[C@@H]1Cc2cc(C(N)=O)cnc2N1          pIC50           7.42
4  C[C@H]1Nc2ncc(C(N)=O)cc2[C@@H]1C          pIC50           6.94
5             NC(=O)c1cnc2c(c1)CCN2          pIC50           6.85
6            Cc1c(C(N)=O)cnc2c1CCN2          pIC50           7.64
7    Cc1c(C(N)=O)cnc2c1C[C@@H](C)N2          pIC50           7.92

====

target: P-gp (Homo sapiens, UniProt P08183); test: Substrate activity at P-gp (unknown origin) assessed as efflux ratio; conditions: not told
Sequence (P08183 whole entry): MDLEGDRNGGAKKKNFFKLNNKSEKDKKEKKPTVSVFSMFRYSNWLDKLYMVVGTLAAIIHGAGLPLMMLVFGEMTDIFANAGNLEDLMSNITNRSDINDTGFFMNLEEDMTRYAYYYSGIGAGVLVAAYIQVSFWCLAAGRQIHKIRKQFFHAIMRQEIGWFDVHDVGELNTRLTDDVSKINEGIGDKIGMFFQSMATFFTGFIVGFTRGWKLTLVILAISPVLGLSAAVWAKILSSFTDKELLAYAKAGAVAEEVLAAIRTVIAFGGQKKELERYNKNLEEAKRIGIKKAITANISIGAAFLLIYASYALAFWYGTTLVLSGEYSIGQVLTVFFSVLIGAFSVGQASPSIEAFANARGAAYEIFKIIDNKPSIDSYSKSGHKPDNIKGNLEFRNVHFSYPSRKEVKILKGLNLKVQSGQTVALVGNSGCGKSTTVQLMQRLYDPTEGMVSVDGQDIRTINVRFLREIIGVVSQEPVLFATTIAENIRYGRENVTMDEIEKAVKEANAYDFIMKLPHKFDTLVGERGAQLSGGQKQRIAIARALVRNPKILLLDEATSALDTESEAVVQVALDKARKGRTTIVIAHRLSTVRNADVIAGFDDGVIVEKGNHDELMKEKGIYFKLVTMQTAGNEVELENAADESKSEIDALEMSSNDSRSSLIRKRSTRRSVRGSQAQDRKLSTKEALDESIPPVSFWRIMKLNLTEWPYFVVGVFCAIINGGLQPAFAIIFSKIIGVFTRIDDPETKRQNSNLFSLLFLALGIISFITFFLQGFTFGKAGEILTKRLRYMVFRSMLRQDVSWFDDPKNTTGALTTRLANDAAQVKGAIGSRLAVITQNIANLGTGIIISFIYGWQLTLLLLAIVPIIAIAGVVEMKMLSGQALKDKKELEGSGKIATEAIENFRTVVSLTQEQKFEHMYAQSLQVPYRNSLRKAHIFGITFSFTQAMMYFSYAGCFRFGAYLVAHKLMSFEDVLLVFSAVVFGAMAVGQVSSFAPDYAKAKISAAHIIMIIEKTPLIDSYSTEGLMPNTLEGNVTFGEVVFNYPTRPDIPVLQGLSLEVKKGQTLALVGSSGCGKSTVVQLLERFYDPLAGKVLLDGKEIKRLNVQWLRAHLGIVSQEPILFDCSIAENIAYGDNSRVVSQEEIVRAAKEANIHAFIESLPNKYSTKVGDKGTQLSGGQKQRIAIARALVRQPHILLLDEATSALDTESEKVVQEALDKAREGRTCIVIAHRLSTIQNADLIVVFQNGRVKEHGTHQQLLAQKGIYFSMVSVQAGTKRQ
quantity.kind: efflux ratio

> print(dat)
                  smiles.input  numeric.value
1  C[C@@H]1Cc2cc(C(N)=O)cnc2N1           0.79

====

assay: Microsomal stability in human liver microsomes assessed as compound remaining after 60 mins by LC-MS/MS analysis; assay type: ADME, Microsome; conditions: liver microsomes, read-out: Stability
quantity.kind: remaining at 1 h (%)

> print(dat)
                     smiles.input  numeric.value
1     C[C@@H]1Cc2cc(C(N)=O)cnc2N1             97
2         NC(=O)c1cnc2c(c1Cl)CCN2             57
3           CNc1cc(C)c(C(N)=O)cn1             95
4           NC(=O)c1cnc2c(c1)CCN2            100
5          Cc1c(C(N)=O)cnc2c1CCN2             85
6  Cc1c(C(N)=O)cnc2c1C[C@@H](C)N2             91

====

target: UniProtKB Q12809; assay: Inhibition of hERG; type: toxicity
Sequence (Q12809 whole entry): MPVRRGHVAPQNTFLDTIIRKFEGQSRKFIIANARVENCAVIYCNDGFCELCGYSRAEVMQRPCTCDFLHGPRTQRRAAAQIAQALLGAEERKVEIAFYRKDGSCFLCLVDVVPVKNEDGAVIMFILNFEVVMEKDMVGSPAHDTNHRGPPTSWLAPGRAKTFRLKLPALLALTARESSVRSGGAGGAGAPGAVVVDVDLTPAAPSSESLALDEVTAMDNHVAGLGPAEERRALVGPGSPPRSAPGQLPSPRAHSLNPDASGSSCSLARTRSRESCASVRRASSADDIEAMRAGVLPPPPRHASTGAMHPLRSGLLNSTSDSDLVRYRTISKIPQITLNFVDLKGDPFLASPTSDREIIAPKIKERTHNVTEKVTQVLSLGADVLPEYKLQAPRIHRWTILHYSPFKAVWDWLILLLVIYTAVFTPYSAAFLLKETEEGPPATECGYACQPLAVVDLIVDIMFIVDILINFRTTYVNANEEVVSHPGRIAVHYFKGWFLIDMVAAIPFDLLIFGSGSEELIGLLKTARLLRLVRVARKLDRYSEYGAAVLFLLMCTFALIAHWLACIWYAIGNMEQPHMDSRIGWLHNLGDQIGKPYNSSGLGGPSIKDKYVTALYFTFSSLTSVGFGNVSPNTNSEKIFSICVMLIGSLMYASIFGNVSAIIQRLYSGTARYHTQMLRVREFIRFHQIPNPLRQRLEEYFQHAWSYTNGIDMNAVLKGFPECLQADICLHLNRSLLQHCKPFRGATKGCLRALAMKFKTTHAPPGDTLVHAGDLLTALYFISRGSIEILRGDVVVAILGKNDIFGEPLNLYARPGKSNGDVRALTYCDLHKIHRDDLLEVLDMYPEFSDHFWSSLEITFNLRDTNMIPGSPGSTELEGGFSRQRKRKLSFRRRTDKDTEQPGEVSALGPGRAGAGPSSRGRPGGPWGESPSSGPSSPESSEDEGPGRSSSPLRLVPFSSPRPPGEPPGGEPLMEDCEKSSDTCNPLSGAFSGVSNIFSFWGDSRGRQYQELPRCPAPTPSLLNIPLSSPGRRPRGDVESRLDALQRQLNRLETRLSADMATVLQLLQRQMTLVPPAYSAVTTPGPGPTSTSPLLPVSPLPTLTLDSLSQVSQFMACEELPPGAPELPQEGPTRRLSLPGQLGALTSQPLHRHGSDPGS
quantity.kind: IC50

> print(dat)
                  smiles.input    assayed.target  quantity.kind   result
1  C[C@@H]1Cc2cc(C(N)=O)cnc2N1  UniProtKB Q12809           IC50  > 30 µM
